- Tested system: motilin receptors located on the colon of mature rabbits (Oryctolagus cuniculus, UniProt G1T803)
- Construct: The colon from mature New Zealand rabbits was removed, dissected free from the mucosa and serosa layers, and diced into small pieces; from tissue; host or cells: colon smooth muscle of mature New Zealand rabbits, crude membrane homogenate
- Sequence (G1T803 1-400): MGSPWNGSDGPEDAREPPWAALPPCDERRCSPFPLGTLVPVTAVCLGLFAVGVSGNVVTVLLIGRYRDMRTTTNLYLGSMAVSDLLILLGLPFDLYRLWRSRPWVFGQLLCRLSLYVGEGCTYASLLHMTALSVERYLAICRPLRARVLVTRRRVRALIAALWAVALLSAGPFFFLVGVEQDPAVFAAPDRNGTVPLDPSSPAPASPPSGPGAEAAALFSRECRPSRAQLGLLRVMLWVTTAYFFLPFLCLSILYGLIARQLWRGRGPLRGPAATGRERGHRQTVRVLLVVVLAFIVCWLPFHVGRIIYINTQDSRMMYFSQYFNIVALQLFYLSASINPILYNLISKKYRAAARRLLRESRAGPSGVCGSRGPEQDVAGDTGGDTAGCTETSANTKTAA
- Experiment: competition with radiolabeled (125I) porcine motilin for the motilin receptors of rabbit colon
- Format: binding
- Reported conditions: @ 10 μM
Endpoint label: inhibition at 10 µM (%)

The cases that follow already have their inhibition at 10 µM on record.
Compound	Endpoint label	Readout units	Readout value
CCN(CC)CCN(CC1=CC(Cc2ccccc2)(NC(=O)C(Cl)(Cl)Cl)CC1)c1cccc(O)c1 (stereo not drawn)	inhibition at 10 µM	%	81
COc1ccc(C(=O)N(CC2=CC(Cc3ccccc3)(NC(=O)C(Cl)(Cl)Cl)CC2)c2cccc(SCCN3CCOCC3)c2)cc1 (stereo not drawn)	inhibition at 10 µM	%	59
CCN(CC)CCSc1cccc(N(CC2=CC(Cc3ccccc3)(NC(=O)C(Cl)(Cl)Cl)CC2)C(=O)c2ccccc2)c1 (stereo not drawn)	inhibition at 10 µM	%	98

1 = COc1ccc(NCC2=CC(Cc3ccccc3)(NC(=O)C(Cl)(Cl)Cl)CC2)cc1O (stereo not drawn)
2 = CCN(CC)CCN(CC1=CC(Cc2ccccc2)(NC(=O)C(Cl)(Cl)Cl)CC1)c1ccc(O)cc1 (stereo not drawn)
Query block: Of the two listed items, which has the higher inhibition at 10 µM? First: 1 Second: 2 Identify your pick by its label.
Result block: 2
(2: 81%, 1: 32%)

###

- Tested system: motilin receptors located on the colon of mature rabbits (Oryctolagus cuniculus)
- Construct: The colon from mature New Zealand rabbits was removed, dissected free from the mucosa and serosa layers, and diced into small pieces; from tissue; host or cells: colon smooth muscle of mature New Zealand rabbits, crude membrane homogenate
- Experiment: competition with radiolabeled (125I) porcine motilin for the motilin receptors of rabbit colon
- Format: binding
- Reported conditions: @ 1.0 μM
Endpoint label: inhibition at 1 µM (%)

Compound	Readout units	inhibition at 1 µM
O=C(Nc1ccccc1)N(CC1=CC(Cc2ccccc2)(NC(=O)C(F)(F)F)CC1)c1cccc(OCCN2CCOCC2)c1 (stereo not drawn)	%	69

a = O=C(c1ccncc1)N(CC1=CC(Cc2ccccc2)(NC(=O)C(Cl)(Cl)Cl)CC1)c1cccc(OCCN2CCOCC2)c1 (stereo not drawn)
b = O=C(c1cccs1)N(CC1=CC(Cc2ccccc2)(NC(=O)C(Cl)(Cl)Cl)CC1)c1cccc(OCCN2CCOCC2)c1 (stereo not drawn)
c = O=C(c1cc(C(F)(F)F)cc(C(F)(F)F)c1)N(CC1=CC(Cc2ccccc2)(NC(=O)C(Cl)(Cl)Cl)CC1)c1cccc(OCCN2CCOCC2)c1 (stereo not drawn)
Query block: Hey, quick one: sort these by inhibition at 1 µM, largest value first please. Return the labels ranked in the requested order, please.
Result block: b, a, c

###

- Tested system: motilin receptors located on the colon of mature rabbits (Oryctolagus cuniculus)
- Construct: The colon from mature New Zealand rabbits was removed, dissected free from the mucosa and serosa layers, and diced into small pieces; from tissue; host or cells: colon smooth muscle of mature New Zealand rabbits, crude membrane homogenate
- Experiment: competition with radiolabeled (125I) porcine motilin for the motilin receptors of rabbit colon
- Assay type: binding
- Reported conditions: @ 10 μM
Endpoint label: inhibition at 10 µM (%)

Molecule	Readout units	inhibition at 10 µM
CCOC(=O)COc1cccc(N(CC2=CC(Cc3ccccc3)(NC(=O)C(Cl)(Cl)Cl)CC2)C(=O)c2ccccc2)c1 (stereo not shown)	%	51
O=C(NC1(Cc2ccccc2)C=C(CNc2cccc(OCCN3CCOCC3)c2)CC1)C(Cl)(Cl)Cl (stereo not shown)	%	37
CCN(CC)CCN(CCc1cccc(OCCN2CCOCC2)c1)CC1=CC(Cc2ccccc2)(NC(=O)C(Cl)(Cl)Cl)CC1 (stereo not shown)	%	95
CCN(CC)CCN(CCc1ccc(O)cc1)CC1=CC(Cc2ccccc2)(NC(=O)C(Cl)(Cl)Cl)CC1 (stereo not shown)	%	84
O=C(c1ccccc1)N(CC1=CC(Cc2ccccc2)(NC(=O)C(Cl)(Cl)Cl)CC1)c1cccc(SCCN2CCOCC2)c1 (stereo not shown)	%	80

1 = O=C(c1ccccc1)N(CC1=CC(Cc2ccccc2)(NC(=O)C(Cl)(Cl)Cl)CC1)Cc1cccc(OCCN2CCOCC2)c1 (stereo not shown)
2 = COc1ccc(NCC2=CC(Cc3ccccc3)(NC(=O)C(Cl)(Cl)Cl)CC2)cc1OCCN1CCOCC1 (stereo not shown)
Query block: Quick one: lower inhibition at 10 µM, 1 or 2 ? Identify your pick by its label.
Result block: 2
(2: 48%, 1: 70%)

###

- Tested system: motilin receptors located on the colon of mature rabbits (Oryctolagus cuniculus)
- Construct: The colon from mature New Zealand rabbits was removed, dissected free from the mucosa and serosa layers, and diced into small pieces; from tissue; host or cells: colon smooth muscle of mature New Zealand rabbits, crude membrane homogenate
- Experiment: competition with radiolabeled (125I) porcine motilin for the motilin receptors of rabbit colon
- Assay type: binding
- Reported conditions: rabbit colon, 125I motilin; read-out: IC50 (unit inferred)
pIC50: −log10 of the molar value.
Endpoint label: pIC50

Compound	pIC50
CCN(CC)CCN(CC1=CC(Cc2ccccc2)(NC(=O)C(Cl)(Cl)Cl)CC1)c1ccccc1OCCN1CCOCC1 (stereo not shown)	6.05

I = O=C(c1ccccc1)N(CC1=CC(Cc2ccccc2)(NC(=O)C(Cl)(Cl)Cl)CC1)c1cccc(OCCN2CCOCC2)c1 (stereo not shown)
II = CCN(CC)CCN(CC1=CC(Cc2ccccc2)(NC(=O)C(Cl)(Cl)Cl)CC1)c1cccc(OCCN2CCCC2)c1 (stereo not shown)
III = CCN(CC)CCSc1ccc(NCC2=CC(Cc3ccccc3)(NC(=O)C(Cl)(Cl)Cl)CC2)cc1 (stereo not shown)
Query block: Give the ascending ranking of the items by reported pIC50. Return the labels ranked in the requested order, please.
Result block: III, II, I
(III: 5.74, II: 6.05, I: 6.52)

###

- Tested system: motilin receptors located on the colon of mature rabbits (Oryctolagus cuniculus)
- Construct: The colon from mature New Zealand rabbits was removed, dissected free from the mucosa and serosa layers, and diced into small pieces; from tissue; host or cells: colon smooth muscle of mature New Zealand rabbits, crude membrane homogenate
- Experiment: competition with radiolabeled (125I) porcine motilin for the motilin receptors of rabbit colon
- Type: binding
- Reported conditions: @ 1.0 μM
Endpoint label: inhibition at 1 µM (%)

The cases that follow already have their inhibition at 1 µM on record.
Molecule	inhibition at 1 µM [%]
O=C(c1ccc(-c2ccccc2)cc1)N(CC1=CC(Cc2ccccc2)(NC(=O)C(Cl)(Cl)Cl)CC1)c1cccc(OCCN2CCOCC2)c1 (stereo not shown) [Compound 1407]	58
CN(C)c1ccc(C(=O)N(CCc2cccc(OCCN3CCOCC3)c2)CC2=CC(Cc3ccccc3)(NC(=O)C(Cl)(Cl)Cl)CC2)cc1 (stereo not shown) [Compound 96]	62
CC(C)(C)c1ccc(C(=O)N(CC2=CC(Cc3ccccc3)(NC(=O)C(Cl)(Cl)Cl)CC2)c2cccc(OCCN3CCOCC3)c2)cc1 (stereo not shown) [Compound 110]	19
O=C(c1ccc(Br)cc1)N(CC1=CC(Cc2ccccc2)(NC(=O)C(Cl)(Cl)Cl)CC1)c1cccc(OCC[N+]2([O-])CCOCC2)c1 (stereo not shown) [Compound 137]	50
O=C(c1ccc(Br)cc1)N(CC1=CC(Cc2ccccc2)(NC(=O)C(Cl)(Cl)Cl)CC1)c1cc(OCCN2CCOCC2)ccc1Cl (stereo not shown) [Compound 38]	59

a = O=C(c1sccc1Br)N(CC1=CC(Cc2ccccc2)(NC(=O)C(Cl)(Cl)Cl)CC1)c1cccc(OCCN2CCOCC2)c1 (stereo not shown) [Compound 115]
b = CC(=O)NC1(Cc2ccccc2)C=C(CN(C(=O)Nc2ccccc2)c2cccc(OCCN3CCOCC3)c2)CC1 (stereo not shown) [Compound 15]
Query block: Of the two listed items, which has the higher inhibition at 1 µM? First: a Second: b Identify your pick by its label.
Result block: a
(a: 65%, b: 40%)

###

- Tested system: motilin receptors located on the colon of mature rabbits (Oryctolagus cuniculus)
- Construct: The colon from mature New Zealand rabbits was removed, dissected free from the mucosa and serosa layers, and diced into small pieces; from tissue; host or cells: colon smooth muscle of mature New Zealand rabbits, crude membrane homogenate
- Experiment: competition with radiolabeled (125I) porcine motilin for the motilin receptors of rabbit colon
- Format: binding
- Reported conditions: rabbit colon, 125I motilin; read-out: IC50
Endpoint label: IC50 (nM)

The cases that follow already have their IC50 on record.
Compound	Readout value
O=C(Nc1ccccc1)N(CC1=CC(Cc2ccccc2)(NC(=O)C(Cl)(Cl)Cl)CC1)c1cccc(OCCN2CCOCC2)c1 (stereo not drawn) [Compound 7]	45
O=C(Nc1cccc(F)c1)N(CC1=CC(Cc2ccccc2)(NC(=O)C(Cl)(Cl)Cl)CC1)c1cccc(OCCN2CCOCC2)c1 (stereo not drawn) [Compound 63]	37
O=C(c1ccc(F)c(F)c1)N(CC1=CC(Cc2ccccc2)(NC(=O)C(Cl)(Cl)Cl)CC1)c1cccc(OCCN2CCOCC2)c1 (stereo not drawn) [Compound 62]	50

I = O=C(c1ccc(F)cc1)N(CC1=CC(Cc2cccc(Cl)c2)(NC(=O)C(Cl)(Cl)Cl)CC1)c1cccc(OCCN2CCOCC2)c1 (stereo not drawn) [Compound 121]
II = O=C(Nc1ccc(F)cc1)N(CC1=CC(Cc2cccc(Cl)c2)(NC(=O)C(Cl)(Cl)Cl)CC1)c1cccc(OCCN2CCOCC2)c1 (stereo not drawn) [Compound 120]
Query block: Quick one: lower IC50, I or II ? Identify your pick by its label.
Result block: II
